study.system: PRMT3 (Homo sapiens, UniProt O60678)
Sequence (O60678 2-531): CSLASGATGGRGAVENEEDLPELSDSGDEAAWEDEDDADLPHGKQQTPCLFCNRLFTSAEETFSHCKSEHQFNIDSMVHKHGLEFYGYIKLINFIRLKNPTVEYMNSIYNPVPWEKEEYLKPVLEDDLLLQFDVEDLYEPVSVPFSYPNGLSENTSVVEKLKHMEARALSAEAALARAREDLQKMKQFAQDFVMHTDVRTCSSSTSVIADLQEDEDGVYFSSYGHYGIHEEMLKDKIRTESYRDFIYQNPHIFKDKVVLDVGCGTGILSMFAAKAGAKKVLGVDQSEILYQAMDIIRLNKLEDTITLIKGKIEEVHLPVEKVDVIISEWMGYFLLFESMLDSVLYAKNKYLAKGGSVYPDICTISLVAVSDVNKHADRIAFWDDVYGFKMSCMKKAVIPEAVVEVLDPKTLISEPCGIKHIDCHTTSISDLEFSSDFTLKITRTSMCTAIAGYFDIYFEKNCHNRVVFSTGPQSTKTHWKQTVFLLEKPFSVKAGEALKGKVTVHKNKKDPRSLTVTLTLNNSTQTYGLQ
protocol: Radioisotope-based filter-binding (HotSpot) assay, PRMT3
condition.details: IC50 PRMT3 (Figure 5 heatmap), radioisotope-based filter assay
endpoint.name: pIC50
Friendly reminder that pIC50 comes from taking -log10 of the concentration in mol/L.

Recorded pIC50 for COC(=O)c1cc(O)c2cc(NC(=O)NCCCCCCNC(=N)NC[C@H]3O[C@@H](n4cnc5c(N)ncnc54)[C@H](O)[C@@H]3O)ccc2c1 [12d] , please? 4.92

---

study.system: PRMT6 (Homo sapiens)
Sequence (Q96LA8 2-375): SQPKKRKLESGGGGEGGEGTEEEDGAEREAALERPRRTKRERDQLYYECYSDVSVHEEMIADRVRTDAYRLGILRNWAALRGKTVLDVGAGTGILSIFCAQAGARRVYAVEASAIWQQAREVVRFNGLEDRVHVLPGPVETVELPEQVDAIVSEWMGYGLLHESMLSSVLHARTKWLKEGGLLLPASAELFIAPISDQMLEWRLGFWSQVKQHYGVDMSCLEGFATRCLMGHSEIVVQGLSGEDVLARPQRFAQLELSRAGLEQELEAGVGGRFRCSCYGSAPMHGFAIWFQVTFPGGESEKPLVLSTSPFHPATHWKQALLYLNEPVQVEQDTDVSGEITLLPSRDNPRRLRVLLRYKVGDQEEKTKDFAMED
protocol: Radioisotope-based filter-binding (HotSpot) assay, PRMT6
endpoint.name: pIC50
Friendly reminder that pIC50 comes from taking -log10 of the concentration in mol/L.

Recorded pIC50 for COC(=O)c1cc(O)c2cc(NC(=O)NCCCCCCNC(=N)NC[C@H]3O[C@@H](n4cnc5c(N)ncnc54)[C@H](O)[C@@H]3O)ccc2c1 [12d] , please? 4.33

---

study.system: UniProt:Q86X55
Sequence (Q86X55 2-608): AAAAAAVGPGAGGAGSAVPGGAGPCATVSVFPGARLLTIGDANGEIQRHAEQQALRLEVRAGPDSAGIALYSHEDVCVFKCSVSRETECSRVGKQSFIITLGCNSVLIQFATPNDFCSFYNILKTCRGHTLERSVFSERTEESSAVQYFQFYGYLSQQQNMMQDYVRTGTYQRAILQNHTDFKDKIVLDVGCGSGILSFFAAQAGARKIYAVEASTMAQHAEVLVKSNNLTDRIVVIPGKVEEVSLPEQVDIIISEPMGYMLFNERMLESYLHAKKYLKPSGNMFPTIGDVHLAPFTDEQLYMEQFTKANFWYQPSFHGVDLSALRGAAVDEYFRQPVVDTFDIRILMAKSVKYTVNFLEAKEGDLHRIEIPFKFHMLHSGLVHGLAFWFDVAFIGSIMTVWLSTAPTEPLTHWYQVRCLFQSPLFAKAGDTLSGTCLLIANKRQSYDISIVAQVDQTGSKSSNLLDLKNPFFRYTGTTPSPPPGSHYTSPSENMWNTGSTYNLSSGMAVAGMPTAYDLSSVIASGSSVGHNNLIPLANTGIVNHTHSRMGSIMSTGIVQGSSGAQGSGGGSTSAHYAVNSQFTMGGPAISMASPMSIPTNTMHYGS
protocol: Radioisotope-based filter-binding (HotSpot) assay, PRMT4
condition.details: read-out: IC50 (μM) PRMT4; radioisotope-based filter assay; 5 μM histone H3; 1 μM 3H-SAM
Kindly state IC50 for each of the entries shown.
Express the result in µM but write the number alone.

Find the measured IC50: item COC(=O)c1cc(O)c2cc(NC(=O)NCCCCNC(=N)NC[C@H]3O[C@@H](n4cnc5c(N)ncnc54)[C@H](O)[C@@H]3O)ccc2c1 [12b] , target or system UniProt:Q86X55. 2.14

Find the measured IC50: item COC(=O)c1cc(O)c2cc(NC(=O)NCCCCNC(=N)NCCC[C@H]3O[C@@H](n4cnc5c(N)ncnc54)[C@H](O)[C@@H]3O)ccc2c1 [12g] , target or system UniProt:Q86X55. 0.0084

Find the measured IC50: item COC(=O)c1cc(O)c2cc(NC(=O)NCCCCCNC(=N)NC[C@H]3O[C@@H](n4cnc5c(N)ncnc54)[C@H](O)[C@@H]3O)ccc2c1 [12c] , target or system UniProt:Q86X55. 0.42

Find the measured IC50: item COC(=O)c1cc(O)c2cc(NC(=O)NCCCCCCCNC(=N)NC[C@H]3O[C@@H](n4cnc5c(N)ncnc54)[C@H](O)[C@@H]3O)ccc2c1 [12e] , target or system UniProt:Q86X55. 0.176

Find the measured IC50: item COC(=O)c1cc(O)c2cc(NC(=O)NCCCCNC(=N)NCC[C@H]3O[C@@H](n4cnc5c(N)ncnc54)[C@H](O)[C@@H]3O)ccc2c1 [12f] , target or system UniProt:Q86X55. 0.0097

Find the measured IC50: item COC(=O)c1cc(O)c2cc(NC(=O)NCCCCNC(=N)NC/C=C/[C@H]3O[C@@H](n4cnc5c(N)ncnc54)[C@H](O)[C@@H]3O)ccc2c1 [12h] , target or system UniProt:Q86X55. 0.0032

---

study.system: PRMT7 (Homo sapiens, UniProt Q9NVM4)
Sequence (Q9NVM4 2-692): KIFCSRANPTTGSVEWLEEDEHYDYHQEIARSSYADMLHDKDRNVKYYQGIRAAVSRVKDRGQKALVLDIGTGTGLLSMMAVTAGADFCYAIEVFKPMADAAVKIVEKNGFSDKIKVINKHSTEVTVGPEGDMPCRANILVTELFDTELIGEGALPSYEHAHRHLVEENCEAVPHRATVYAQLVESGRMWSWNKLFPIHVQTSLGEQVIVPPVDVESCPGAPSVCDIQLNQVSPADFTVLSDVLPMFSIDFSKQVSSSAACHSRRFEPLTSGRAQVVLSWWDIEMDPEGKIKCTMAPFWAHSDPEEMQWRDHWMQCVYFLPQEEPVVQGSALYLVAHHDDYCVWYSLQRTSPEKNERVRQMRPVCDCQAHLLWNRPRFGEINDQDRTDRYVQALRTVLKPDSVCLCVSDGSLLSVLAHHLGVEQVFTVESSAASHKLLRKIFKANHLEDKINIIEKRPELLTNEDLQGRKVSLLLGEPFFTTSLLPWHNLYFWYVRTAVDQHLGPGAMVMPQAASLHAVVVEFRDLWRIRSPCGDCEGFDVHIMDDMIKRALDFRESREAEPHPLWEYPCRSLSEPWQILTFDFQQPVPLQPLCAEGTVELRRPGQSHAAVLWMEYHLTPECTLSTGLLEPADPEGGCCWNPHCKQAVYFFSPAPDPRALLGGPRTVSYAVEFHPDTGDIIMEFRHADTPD
protocol: Radioisotope-based filter-binding (HotSpot) assay, PRMT7
condition.details: read-out: IC50 (μM) PRMT7; radioisotope-based filter assay; 5 μM GST-GAR; 1 μM 3H-SAM
Kindly state IC50 for each of the entries shown.
Express the result in µM but write the number alone.

Recorded IC50 for COC(=O)c1cc(O)c2cc(NC(=O)NCCCCNC(=N)NCCC[C@H]3O[C@@H](n4cnc5c(N)ncnc54)[C@H](O)[C@@H]3O)ccc2c1 [12g] , please? 4.68

Recorded IC50 for COC(=O)c1cc(O)c2cc(NC(=O)NCCCCCCCNC(=N)NC[C@H]3O[C@@H](n4cnc5c(N)ncnc54)[C@H](O)[C@@H]3O)ccc2c1 [12e] , please? 0.631

Recorded IC50 for COC(=O)c1cc(O)c2cc(NC(=O)NCCCCNC(=N)NC/C=C/[C@H]3O[C@@H](n4cnc5c(N)ncnc54)[C@H](O)[C@@H]3O)ccc2c1 [12h] , please? 1.68

---

study.system: SETD8 (Homo sapiens)
Construct: SETD8 (residues 190–352, C-terminus); N-terminal His-tag; His (N); purchased Reaction Biology Corporation
Sequence (Q9NQR1 231-393): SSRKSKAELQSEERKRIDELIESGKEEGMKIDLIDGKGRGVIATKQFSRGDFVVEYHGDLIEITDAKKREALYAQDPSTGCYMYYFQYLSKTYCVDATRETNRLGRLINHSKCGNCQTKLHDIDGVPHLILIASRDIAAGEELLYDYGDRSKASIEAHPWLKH
protocol: HotSpot KMT activity assay, SETD8
Assay type: biochemical
condition.details: 10-dose mode, 3-fold dilution starting at 100 µM; read-out: ref. cmpd. IC50 (µM), SETD8
Experimental: Then, ^3H-SAM (final concentration 1 μM) was delivered into the reaction mixture to initiate the reaction. After incubation for 60 min at 30 °C, the reaction mixture was delivered to filter-paper for detection (as assessed by scintillation). […] Data were analyzed using Excel and GraphPad Prism 6.0 software (GraphPad Software Inc., San Diego, CA). Values obtained for each compound are mean ± SD determined for two separate experiments.
endpoint.name: IC50 (µM)
Express the result in µM but write the number alone.

Find the measured IC50: item Cc1ccc(NC2=CC(=O)c3sc(C)nc3C2=O)cc1 [ryuv, ryuvidine, reference compound] , target or system SETD8 (Homo sapiens). 0.186

---

study.system: PRMT4 (Homo sapiens, UniProt Q86X55)
protocol: Radioisotope-based filter-binding (HotSpot) assay, PRMT4
condition.details: ratio IC50 PRMT1 / IC50 PRMT4, rounded to nearest integer
Kindly state selectivity index for PRMT4 vs other PRMTs: PRMT1 for each of the entries shown.
// response body must contain only the number

Recorded selectivity index for PRMT4 vs other PRMTs: PRMT1 for COC(=O)c1cc(O)c2cc(NC(=O)NCCCCCCCNC(=N)NC[C@H]3O[C@@H](n4cnc5c(N)ncnc54)[C@H](O)[C@@H]3O)ccc2c1 [12e] , please? 15

Recorded selectivity index for PRMT4 vs other PRMTs: PRMT1 for COC(=O)c1cc(O)c2cc(NC(=O)NCCCCNC(=N)NCC[C@H]3O[C@@H](n4cnc5c(N)ncnc54)[C@H](O)[C@@H]3O)ccc2c1 [12f] , please? 501

Recorded selectivity index for PRMT4 vs other PRMTs: PRMT1 for COC(=O)c1cc(O)c2cc(NC(=O)NCCCCNC(=N)NCCC[C@H]3O[C@@H](n4cnc5c(N)ncnc54)[C@H](O)[C@@H]3O)ccc2c1 [12g] , please? 214

Recorded selectivity index for PRMT4 vs other PRMTs: PRMT1 for COC(=O)c1cc(O)c2cc(NC(=O)NCCCCCNC(=N)NC[C@H]3O[C@@H](n4cnc5c(N)ncnc54)[C@H](O)[C@@H]3O)ccc2c1 [12c] , please? 20

---

study.system: human PRMT4 (full length) (Homo sapiens, UniProt Q86X55)
Construct: Full-length recombinant PRMT4 (Active motif, # 81107); purchased Active motif # 81107
protocol: SPR binding to immobilized PRMT4
condition.details: SPR, immobilized PRMT4
Method: To this aim, human PRMT4 (full length) was covalently immobilized on a sensor chip surface using an amine-coupling approach, and the three compounds were injected at different concentrations over the protein surface. To reduce false positives from detergent-sensitive, nonspecific aggregation-based binding, detergents (0.05% Tween-20) were added to the running buffer in all experiments. SPR experiments were performed on a Biacore T200 biosensor (Cytiva). […]
Kindly state koff for each of the entries shown.
Express the result in s⁻¹ but write the number alone.

Recorded koff for COC(=O)c1cc(O)c2cc(NC(=O)NCCCCNC(=N)NC[C@H]3O[C@@H](n4cnc5c(N)ncnc54)[C@H](O)[C@@H]3O)ccc2c1 [12b] , please? 0.015

Recorded koff for COC(=O)c1cc(O)c2cc(NC(=O)NCCCCCCNC(=N)NC[C@H]3O[C@@H](n4cnc5c(N)ncnc54)[C@H](O)[C@@H]3O)ccc2c1 [12d] , please? 0.76

Recorded koff for C[S+](CC[C@H](N)C(=O)[O-])C[C@H]1O[C@@H](n2cnc3c(N)ncnc32)[C@H](O)[C@@H]1O (stereo partly drawn) [SAM, S-adenosyl-L-methionine, reference compound] , please? 0.003
